Origin of measurements: ChEMBL document CHEMBL1129071

Test: Relative affinity for […] opioid receptors
Kindly return 1 if reported Ratio is no lower than 20; return 0 if it is lower.

Data request: I'd appreciate it if you could say whether COc1ccc2[nH]c3c(c2c1)C1(c2cccc(O)c2)CCN(C)C(C3)C1 (stereo in doubt; (-)-11) has Ratio at least equal to 20.
Data returned: 0

Data request: Follow-up entry: CN1CCC2(c3ccccc3)CC1Cc1[nH]c3ccccc3c12 (racemic)
Data returned: 0

Data request: Then what about the compound COc1ccc2[nH]c3c(c2c1)C1(c2cccc(O)c2)CCN(C)C(C3)C1 (racemic) ?
Data returned: 0

Data request: What about COc1ccc2c3c([nH]c2c1)CC1CC3(c2cccc(O)c2)CCN1C (racemic) ?
Data returned: 1

Data request: And then `COc1ccc2c3c([nH]c2c1)C[C@@H]1C[C@@]3(c2cccc(O)c2)CCN1C` , what is it?
Data returned: 1

Data request: Now give it for CN1CCC2(c3cccc(O)c3)CC(=O)CC1C2 (racemic) too.
Data returned: 0

Data request: Entry COc1cccc2c3c([nH]c12)CC1CC3(c2cccc(O)c2)CCN1C (racemic) please
Data returned: 1

Data request: Now try COc1cccc2c3c([nH]c12)CC1CC3(c2cccc(O)c2)CCN1C (single isomer, unassigned; (-)) .
Data returned: 1

Data request: Another compound to look at: CN1CCC2(c3cccc(O)c3)CC(=O)CC1C2 (centres undefined)
Data returned: 0

----------
// pIC50 collected for Kappa-type opioid receptor (Cavia porcellus, UniProt P41144)
Conceptually, pIC50 converts a concentration in mol/L into minus its log10.

Data request: Lab note: need pIC50 for COc1cccc2c3c([nH]c12)CC1CC3(c2cccc(O)c2)CCN1C (single isomer, unassigned; (-)) on Kappa-type opioid receptor (Cavia porcellus, UniProt P41144), anyone have it?
Data returned: 5.75

Data request: Now the same for COc1cccc2c3c([nH]c12)CC1CC3(c2cccc(O)c2)CCN1C (racemic)
Data returned: 5.40

----------
Target or system Kappa-type opioid receptor (Cavia porcellus); recorded quantity pIC50.
Hey, just a heads up that pIC50 is the negative log base 10 of the concentration in molar.

Data request: Entry under review: `COc1ccc2c3c([nH]c2c1)C[C@@H]1C[C@@]3(c2cccc(O)c2)CCN1C` . Reported pIC50?
Data returned: 5.93

Data request: Entry to check: `CC(C)C[C@@H](NC(=O)[C@H](Cc1ccccc1)NC(=O)CNC(=O)[C@@H](C)NC(=O)[C@@H](N)Cc1ccc(O)cc1)C(=O)O`
Data returned: 5.36

----------
What IC50 was measured for each of the following?
Target: Delta-type opioid receptor (Rattus norvegicus)
Sequence (P33533 whole entry): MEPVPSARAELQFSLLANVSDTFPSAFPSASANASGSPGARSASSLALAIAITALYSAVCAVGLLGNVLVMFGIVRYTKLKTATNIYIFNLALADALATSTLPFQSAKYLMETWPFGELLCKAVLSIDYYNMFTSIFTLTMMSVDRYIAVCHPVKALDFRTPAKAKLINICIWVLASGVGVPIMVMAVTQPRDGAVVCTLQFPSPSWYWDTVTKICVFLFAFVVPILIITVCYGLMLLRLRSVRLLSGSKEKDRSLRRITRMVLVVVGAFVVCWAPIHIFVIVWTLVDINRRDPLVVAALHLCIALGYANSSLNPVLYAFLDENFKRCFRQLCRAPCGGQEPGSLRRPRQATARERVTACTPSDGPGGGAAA
Experiment: Inhibition of [3H]- DADLE binding to Rat brain Opioid receptor delta 1
Express it in nM; write the number only.

Data request: Recorded IC50 for COc1ccc2c3c([nH]c2c1)CC1CC3(c2cccc(O)c2)CCN1C (racemic) with Delta-type opioid receptor (Rattus norvegicus), please?
Data returned: 6.3

Data request: Then what about the compound COc1cccc2c3c([nH]c12)CC1CC3(c2cccc(O)c2)CCN1C (single isomer, unassigned; (-)) ?
Data returned: 4.4

Data request: Consider next the compound COc1ccc2[nH]c3c(c2c1)C1(c2cccc(O)c2)CCN(C)C(C3)C1 (stereo in doubt; (-)-11) in the same way.
Data returned: 144

Data request: Next compound: CN1CCC2(c3ccccc3)CC1Cc1[nH]c3ccccc3c12 (racemic)
Data returned: 1970

Data request: Here is the next compound: COc1cccc2c3c([nH]c12)CC1CC3(c2cccc(O)c2)CCN1C (racemic)
Data returned: 8.7

Data request: Next up: COc1ccc2[nH]c3c(c2c1)C1(c2cccc(O)c2)CCN(C)C(C3)C1 (racemic)
Data returned: 90.1

Data request: How about this compound: `COc1ccc2c3c([nH]c2c1)C[C@@H]1C[C@@]3(c2cccc(O)c2)CCN1C`
Data returned: 3.7

Data request: Next up: `CN1CC[C@]2(c3cccc(O)c3)C[C@H]1Cc1[nH]c3ccccc3c12`
Data returned: 5.6
